- TEST_SYSTEM: T1, ND1p97wt (N-D1 fragment of wild-type p97, residues 1-480) (UniProt P55072 1-480)
- T1 construct: p97 (valosin-containing protein, VCP), N-D1 long fragment, residues 1-480, wild type; also called N-D1 long; ND1p97 (residue 1-480)
- T1 sequence (P55072 1-480): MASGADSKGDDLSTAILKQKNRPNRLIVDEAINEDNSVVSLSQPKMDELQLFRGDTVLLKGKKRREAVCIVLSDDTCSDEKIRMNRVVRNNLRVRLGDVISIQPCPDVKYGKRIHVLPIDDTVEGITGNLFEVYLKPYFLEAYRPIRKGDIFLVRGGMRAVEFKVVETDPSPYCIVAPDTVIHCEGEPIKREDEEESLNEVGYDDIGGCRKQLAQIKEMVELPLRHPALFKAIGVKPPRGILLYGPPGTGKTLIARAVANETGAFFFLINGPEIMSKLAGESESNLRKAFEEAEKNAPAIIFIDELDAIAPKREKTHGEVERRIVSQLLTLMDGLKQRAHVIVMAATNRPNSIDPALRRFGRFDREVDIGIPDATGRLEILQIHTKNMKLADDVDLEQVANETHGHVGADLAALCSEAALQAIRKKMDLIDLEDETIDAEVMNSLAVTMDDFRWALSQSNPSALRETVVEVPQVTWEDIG
- PROCEDURE_TEXT: ITC; VIMPx titrated into p97; iTC200, 25 C; 50 mM Tris pH 8.0, 150 mM NaCl, 2 mM MgCl2, 5% glycerol; 2 mM AMP-PNP in both samples; one-site model
- RUN_PARAMETERS: both partners purified
pKd: −log10 of the molar value.
PROPERTY: pKd

INSERT INTO results (binder, recorded_number) VALUES
  ('VIMPx (VCP-interacting membrane protein, residues 49-122) (domain or fragment, UniProt Q9BQE4 49-122, looked up, VIMP (selenoprotein S), fragment of the cytosolic segment, residues 49-122 (stop codon after M122); also called His-VIMPx; selenoprotein S; source: E. coli BL21(DE3), purified (Ni-NTA, Superdex 75)) QKLSARLRALRQRQLDRAAAAVEPDVVVKRQEALAAARLKMQEELNAQVEKHKEKLKQLEEEKRRQKIEMWDSM', 5.26);

Values compiled from paper PMC5725882.
